Data provenance is the supplement of paper PMC6089552.

Tested on: A673/TR/shEF
Assay Remarks: cell viability (LOESS-normalised, relative to median of negative controls) (log2 ratio); higher = more viable cells (less compound effect), active = hit call of the paper (over 3 MAD below the median)
Test Settings: 8.3 µM; library screen: screen3; EWS-FLI1 expression: high (no doxycycline); treatment time: 72 h
Out of some 3,200 compounds screened, about 300 (9.4%) showed activity. The sample holds actives, similar compounds and a random draw of the others, so the mix is not that of the screen.
Endpoint Label: cell viability (log2)
Give your answer as a number; write no unit.

// solved cases for cell viability (log2) follow
Cn1cc(C2=C(c3cn(C4CCN(Cc5ccccn5)CC4)c4ccccc34)C(=O)NC2=O)c2ccccc21
0.0419
CC[C@@]1(O)C(=O)OCc2c1cc1n(c2=O)Cc2cc3ccccc3nc2-1
-4.26
CC1=C2C[C@H]3[C@@H](CC=C4C[C@@H](O)CC[C@@]43C)[C@@H]2CC[C@]12O[C@@H]1C[C@H](C)CN[C@H]1[C@H]2C
-0.0322
Cc1c(N)nc(C(CC(N)=O)NCC(N)C(N)=O)nc1C(=O)NC(C(=O)NC(C)C(O)C(C)C(=O)NC(C(=O)NCCc1nc(-c2nc(C(=O)NCCC[S+](C)C)cs2)cs1)C(C)O)C(O[C@@H]1O[C@@H](CO)[C@@H](O)[C@H](O)[C@@H]1O[C@H]1O[C@H](CO)[C@@H](O)[C@H](OC(N)=O)[C@@H]1O)c1cnc[nH]1 (stereo partly specified)
0.12
CN1[C@H]2CC(OC(=O)C(CO)c3ccccc3)C[C@H]1[C@H]1O[C@H]12 (stereo partly specified)
0.0173

Ask | Under A673/TR/shEF: report cell viability (log2) of `CC(=O)O[C@H]1C[C@@H]2CC[C@@H]3[C@H](CC[C@@]4(C)[C@H]3C[C@H]([N+]3(C)CCCCC3)[C@@H]4OC(C)=O)[C@@]2(C)C[C@@H]1[N+]1(C)CCCCC1` .
Reply | 0.106
